Documented IC50 across a set of compounds
assay.system: PDE 3 (cGMP inhibited PDE) (Homo sapiens, UniProt Q14432)
Construct: from tissue; host or cells: human platelets, DEAE-cellulose fraction
Sequence (Q14432 whole entry): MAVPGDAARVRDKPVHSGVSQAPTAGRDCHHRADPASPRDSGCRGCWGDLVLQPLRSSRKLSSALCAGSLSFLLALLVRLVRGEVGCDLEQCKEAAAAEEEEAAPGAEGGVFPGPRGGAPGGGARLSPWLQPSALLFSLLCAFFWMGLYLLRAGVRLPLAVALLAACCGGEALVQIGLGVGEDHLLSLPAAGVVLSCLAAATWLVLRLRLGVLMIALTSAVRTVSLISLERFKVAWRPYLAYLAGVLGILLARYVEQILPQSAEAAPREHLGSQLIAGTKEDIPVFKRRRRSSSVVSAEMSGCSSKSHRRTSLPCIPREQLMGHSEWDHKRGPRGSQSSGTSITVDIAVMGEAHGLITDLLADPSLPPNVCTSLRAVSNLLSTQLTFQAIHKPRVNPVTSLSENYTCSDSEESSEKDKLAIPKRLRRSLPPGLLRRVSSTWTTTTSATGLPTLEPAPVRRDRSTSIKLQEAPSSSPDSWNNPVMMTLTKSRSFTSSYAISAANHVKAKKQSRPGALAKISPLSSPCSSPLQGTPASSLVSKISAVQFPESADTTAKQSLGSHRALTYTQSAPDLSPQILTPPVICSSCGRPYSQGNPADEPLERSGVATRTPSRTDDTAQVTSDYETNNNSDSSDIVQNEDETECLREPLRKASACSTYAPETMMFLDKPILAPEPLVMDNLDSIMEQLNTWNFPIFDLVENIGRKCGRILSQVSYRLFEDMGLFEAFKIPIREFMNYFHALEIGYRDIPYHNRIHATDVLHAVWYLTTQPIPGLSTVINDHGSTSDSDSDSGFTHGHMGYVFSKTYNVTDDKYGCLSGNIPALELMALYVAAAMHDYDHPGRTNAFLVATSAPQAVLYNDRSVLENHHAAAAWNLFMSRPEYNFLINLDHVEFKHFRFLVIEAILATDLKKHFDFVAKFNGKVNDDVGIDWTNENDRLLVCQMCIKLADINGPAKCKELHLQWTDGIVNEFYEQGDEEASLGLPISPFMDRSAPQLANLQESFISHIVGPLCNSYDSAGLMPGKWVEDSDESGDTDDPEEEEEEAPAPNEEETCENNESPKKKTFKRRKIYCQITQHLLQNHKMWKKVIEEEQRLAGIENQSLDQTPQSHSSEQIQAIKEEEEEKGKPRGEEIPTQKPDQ
Format: biochemical
details: isozyme from human platelets; [3H]-cAMP or [3H]-cGMP substrate; read-out: PDE inhibiting activity : IC50(nM) PDE3

Worked set:
COc1ccc(CNc2nc(C(=O)Nc3ccccc3)nc3sc(-c4ccccc4)cc23)cc1Cl :: > 10000 nM
COc1ccc(CNc2nc(C(=O)Nc3ccccc3)nc3scc(C)c23)cc1Cl :: > 10000 nM
COc1ccc(CNc2nc(C(=O)Nc3ccccc3)nc3sc(-c4ccc(F)cc4)c(C)c23)cc1Cl :: > 10000 nM
COc1ccc(CNc2nc(C(=O)Nc3ccccc3)nc3sc(-c4ccncc4)c(C)c23)cc1Cl :: 2400 nM

Input line: Field: IC50 (PDE 3 (cGMP inhibited PDE) (Homo sapiens, UniProt Q14432)). Entry: "CCOC(=O)c1nc(NCc2ccc(OC)c(Cl)c2)c2cc(-c3ccccc3)sc2n1"
Output line: > 10000 nM

====

assay.system: PDE 4 (cAMP specific PDE)
measurement.description: Phosphodiesterase inhibiting effect, PDE 4 separated from dog kidney
Format: biochemical
details: isozyme from the kidney of a dog; [3H]-cAMP or [3H]-cGMP substrate; read-out: PDE inhibiting activity : IC50(nM) PDE4
Documented log10 IC50 across a set of molecules
log10 IC50, nM

Worked set:
COc1ccc(CNc2nc(-c3ccncc3)nc3sc(C(=O)N(C)C)c(C)c23)cc1Cl :: 3.20
COc1ccc(CNc2nc(-c3ccncc3)nc3sc(C(=O)O)c(C)c23)cc1Cl :: 3.64
COc1ccc(CNc2nc(-c3ccncc3)nc3sc(C(=O)N4CCCCC4)c(C)c23)cc1Cl :: 3.20

Input line: Can you look up the measured log10 IC50 of "COc1ccc(CNc2nc(-c3cccnc3)nc3sc(C(=O)N(C)C)c(C)c23)cc1Cl" for me?
Output line: 3.15

Input line: Can you look up the measured log10 IC50 of "COc1ccc(CNc2nc(-c3ccncc3)nc3sc(-c4ccccn4)c(C)c23)cc1Cl" for me?
Output line: 2.38

Input line: Can you look up the measured log10 IC50 of "COc1ccc(CNc2nc(-c3cccnc3)nc3sc(C(=O)O)c(C)c23)cc1Cl" for me?
Output line: 3.08

Origin of the recorded values: patent EP1329454A1
